Parameter: Papp A→B. Scope: all listed entries.
# method: in vitro
# assay_context: human, Caco-2, Direction = A2B Papp Replicate 2, Caco-2, A2B, replicate 2

molecule: CC(C)NCC(O)COc1cccc2ccccc12 (centres unmarked) [propranolol, reference compound]
Papp A→B (×10⁻⁶ cm/s): 27.4

molecule: N[C@@]1(c2ccccc2Cl)CCC[C@@H](O)C1=O [2R,6R-hydroxynorketamine]
Papp A→B (×10⁻⁶ cm/s): 42.3

---

# system_name: CYP3A4 (Homo sapiens, UniProt P08684)
# Sequence (P08684 whole entry): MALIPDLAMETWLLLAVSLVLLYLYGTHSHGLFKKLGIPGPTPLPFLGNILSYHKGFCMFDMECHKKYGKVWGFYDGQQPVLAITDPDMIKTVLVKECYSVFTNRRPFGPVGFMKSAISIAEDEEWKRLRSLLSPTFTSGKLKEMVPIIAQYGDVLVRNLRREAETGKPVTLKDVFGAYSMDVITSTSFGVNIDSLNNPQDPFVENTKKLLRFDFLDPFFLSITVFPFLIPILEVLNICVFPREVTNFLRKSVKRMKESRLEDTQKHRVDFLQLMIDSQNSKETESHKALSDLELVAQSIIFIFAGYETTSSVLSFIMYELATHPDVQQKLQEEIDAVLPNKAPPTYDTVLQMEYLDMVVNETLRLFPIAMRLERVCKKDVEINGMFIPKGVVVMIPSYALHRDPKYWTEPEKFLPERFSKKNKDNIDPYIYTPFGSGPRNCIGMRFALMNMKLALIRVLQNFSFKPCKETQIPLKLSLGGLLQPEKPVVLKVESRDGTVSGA
# method: CYP inhibition assay, CYP3A4 (substrates midazolam and testosterone)
# Assay type: in vitro ADME
# assay_context: substrate testosterone
pIC50: −log10 of the molar value.
measured_quantity: pIC50

compound: N[C@@]1(c2ccccc2Cl)CCC[C@@H](O)C1=O [2R,6R-hydroxynorketamine]
value_observed: 4.09

---

# system_name: CYP2C9 (Homo sapiens)
# Sequence (P11712 whole entry): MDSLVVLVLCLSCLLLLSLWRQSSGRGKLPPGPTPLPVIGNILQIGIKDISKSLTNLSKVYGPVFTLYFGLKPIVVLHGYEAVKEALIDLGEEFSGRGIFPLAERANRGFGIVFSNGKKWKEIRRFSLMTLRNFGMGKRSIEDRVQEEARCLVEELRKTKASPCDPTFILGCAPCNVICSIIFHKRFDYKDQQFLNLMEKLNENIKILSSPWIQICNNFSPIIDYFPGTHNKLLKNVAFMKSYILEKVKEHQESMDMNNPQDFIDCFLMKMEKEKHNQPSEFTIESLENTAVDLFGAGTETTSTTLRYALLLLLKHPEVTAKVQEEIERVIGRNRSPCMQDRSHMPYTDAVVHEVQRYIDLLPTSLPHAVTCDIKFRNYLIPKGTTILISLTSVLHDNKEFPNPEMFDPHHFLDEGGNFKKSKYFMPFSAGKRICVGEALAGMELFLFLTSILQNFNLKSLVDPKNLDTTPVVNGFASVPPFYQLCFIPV
# method: CYP inhibition assay, CYP2C9
# Assay type: in vitro ADME
# assay_context: human; 100 μM
measured_quantity: inhibition at 100 µM (%)

compound: N[C@@]1(c2ccccc2Cl)CCC[C@@H](O)C1=O [2R,6R-hydroxynorketamine]
value_observed: -1.33

---

# system_name: CYP2C8 (Homo sapiens)
# Sequence (P10632 1-490): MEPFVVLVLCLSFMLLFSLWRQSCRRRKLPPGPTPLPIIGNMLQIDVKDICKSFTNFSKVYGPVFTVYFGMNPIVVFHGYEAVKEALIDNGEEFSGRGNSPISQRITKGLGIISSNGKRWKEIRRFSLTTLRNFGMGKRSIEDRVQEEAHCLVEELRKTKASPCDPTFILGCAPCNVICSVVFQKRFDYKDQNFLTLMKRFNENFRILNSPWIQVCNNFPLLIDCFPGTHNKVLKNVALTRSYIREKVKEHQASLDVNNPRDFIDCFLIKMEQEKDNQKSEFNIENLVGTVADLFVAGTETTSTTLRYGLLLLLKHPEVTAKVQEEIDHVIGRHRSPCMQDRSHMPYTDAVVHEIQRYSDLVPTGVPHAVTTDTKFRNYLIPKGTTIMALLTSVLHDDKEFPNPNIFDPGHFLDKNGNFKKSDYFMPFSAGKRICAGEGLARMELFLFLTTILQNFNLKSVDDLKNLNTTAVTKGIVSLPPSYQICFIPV
# method: CYP inhibition assay, CYP2C8
# Type: in vitro ADME
# assay_context: human; 1 μM
# Description: Cytochrome P450s (CYPs) are a family of enzymes that play a primary role in the metabolism of a wide variety of drugs. 2R,6R-hydroxynorketamine was investigated for its potential to inhibit the action of 7 key CYP enzymes using an inhibition assay measuring reduction in the formation of metabolites compared to control.

compound: N[C@@]1(c2ccccc2Cl)CCC[C@@H](O)C1=O [2R,6R-hydroxynorketamine]
unit_annotation: %
inhibition at 1 µM: 4.91

---

# system_name: CYP3A4 (Homo sapiens)
# method: CYP inhibition assay, CYP3A4 (substrates midazolam and testosterone)
# Assay type: in vitro ADME
# assay_context: human, probe midazolam; Substrate = midazolam, 10 μM

compound: N[C@@]1(c2ccccc2Cl)CCC[C@@H](O)C1=O [2R,6R-hydroxynorketamine]
system_name: CYP3A4 (Homo sapiens)
inhibition at 10 µM / %: 25.7

---

# system_name: CYP2C8 (Homo sapiens)
# method: CYP inhibition assay, CYP2C8
# Assay type: in vitro ADME
# assay_context: human; 4 μM

compound: N[C@@]1(c2ccccc2Cl)CCC[C@@H](O)C1=O [2R,6R-hydroxynorketamine]
system_name: CYP2C8 (Homo sapiens)
inhibition at 4 µM (%): 12.5
